Data provenance is patent US10689378B2.

target: wild type PRC2 (wtPRC2) complex (Homo sapiens, UniProt O75530); experiment: EED LC-MS assay (SAH production by PRC2); type: biochemical; details: PRC2 LC-MS assay; read-out: (b) IC50 EED LC-MS Qualified
Sequence (O75530 whole entry): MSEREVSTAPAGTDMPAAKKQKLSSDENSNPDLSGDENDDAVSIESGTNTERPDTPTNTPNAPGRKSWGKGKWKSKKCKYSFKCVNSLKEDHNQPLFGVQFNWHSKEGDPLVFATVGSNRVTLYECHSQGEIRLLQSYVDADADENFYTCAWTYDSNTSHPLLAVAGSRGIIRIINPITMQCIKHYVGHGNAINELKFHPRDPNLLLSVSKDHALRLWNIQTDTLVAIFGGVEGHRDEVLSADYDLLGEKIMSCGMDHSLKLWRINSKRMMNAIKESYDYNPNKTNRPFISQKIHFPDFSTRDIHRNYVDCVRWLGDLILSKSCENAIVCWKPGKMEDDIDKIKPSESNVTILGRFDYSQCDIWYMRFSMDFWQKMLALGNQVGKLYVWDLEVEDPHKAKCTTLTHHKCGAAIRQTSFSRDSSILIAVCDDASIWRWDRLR
Sequence (Q15910 whole entry partner): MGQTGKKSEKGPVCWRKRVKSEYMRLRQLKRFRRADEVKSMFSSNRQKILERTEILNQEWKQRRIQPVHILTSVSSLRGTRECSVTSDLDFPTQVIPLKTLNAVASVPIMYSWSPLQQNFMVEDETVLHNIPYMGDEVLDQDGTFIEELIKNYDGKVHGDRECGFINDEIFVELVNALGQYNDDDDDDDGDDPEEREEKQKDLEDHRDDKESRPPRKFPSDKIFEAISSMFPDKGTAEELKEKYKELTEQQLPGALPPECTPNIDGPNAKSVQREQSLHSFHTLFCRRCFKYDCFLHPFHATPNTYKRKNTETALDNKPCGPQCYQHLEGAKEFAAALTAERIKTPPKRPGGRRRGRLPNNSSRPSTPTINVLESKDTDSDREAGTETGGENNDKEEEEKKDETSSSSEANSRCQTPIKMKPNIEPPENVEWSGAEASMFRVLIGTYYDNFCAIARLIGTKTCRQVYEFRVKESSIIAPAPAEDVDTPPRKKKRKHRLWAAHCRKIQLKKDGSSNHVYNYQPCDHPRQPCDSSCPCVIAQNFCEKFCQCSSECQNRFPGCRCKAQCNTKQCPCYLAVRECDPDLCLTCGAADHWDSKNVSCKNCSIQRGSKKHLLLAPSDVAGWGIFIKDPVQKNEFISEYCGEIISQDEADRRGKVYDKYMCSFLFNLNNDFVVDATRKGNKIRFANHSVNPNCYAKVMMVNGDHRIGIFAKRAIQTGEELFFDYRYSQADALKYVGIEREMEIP
Sequence (Q15022 whole entry partner): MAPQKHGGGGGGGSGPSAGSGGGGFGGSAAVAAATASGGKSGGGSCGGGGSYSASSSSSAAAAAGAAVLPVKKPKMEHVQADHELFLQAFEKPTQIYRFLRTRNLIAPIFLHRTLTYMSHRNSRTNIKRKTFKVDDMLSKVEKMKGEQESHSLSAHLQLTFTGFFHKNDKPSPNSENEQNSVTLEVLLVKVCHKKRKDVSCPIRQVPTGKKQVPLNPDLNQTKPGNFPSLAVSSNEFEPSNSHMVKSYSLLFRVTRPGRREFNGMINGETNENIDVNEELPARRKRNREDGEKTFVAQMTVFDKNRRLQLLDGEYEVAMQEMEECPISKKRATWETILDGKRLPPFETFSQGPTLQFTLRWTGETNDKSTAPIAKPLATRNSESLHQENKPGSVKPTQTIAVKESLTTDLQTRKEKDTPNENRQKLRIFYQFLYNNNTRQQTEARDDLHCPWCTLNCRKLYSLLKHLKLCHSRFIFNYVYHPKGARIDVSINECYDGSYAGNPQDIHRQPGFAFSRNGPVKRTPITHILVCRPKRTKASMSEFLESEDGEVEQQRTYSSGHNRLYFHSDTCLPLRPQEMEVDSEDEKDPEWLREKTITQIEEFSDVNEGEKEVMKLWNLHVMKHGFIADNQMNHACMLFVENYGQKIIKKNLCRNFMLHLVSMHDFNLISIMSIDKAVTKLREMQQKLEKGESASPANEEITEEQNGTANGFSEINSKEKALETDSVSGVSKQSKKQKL
Sequence (Q09028 whole entry partner): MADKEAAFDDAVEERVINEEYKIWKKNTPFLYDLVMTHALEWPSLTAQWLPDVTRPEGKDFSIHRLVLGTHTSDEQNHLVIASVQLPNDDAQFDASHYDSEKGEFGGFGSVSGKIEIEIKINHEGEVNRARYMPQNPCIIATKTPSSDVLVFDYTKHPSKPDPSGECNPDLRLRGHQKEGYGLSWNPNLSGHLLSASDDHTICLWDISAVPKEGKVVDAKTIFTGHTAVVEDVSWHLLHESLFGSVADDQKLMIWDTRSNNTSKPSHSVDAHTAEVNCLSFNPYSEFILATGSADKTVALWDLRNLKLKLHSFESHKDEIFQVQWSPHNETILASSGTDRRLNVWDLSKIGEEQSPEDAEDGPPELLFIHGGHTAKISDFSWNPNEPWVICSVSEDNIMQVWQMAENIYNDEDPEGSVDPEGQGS
Sequence (Q6ZN18 whole entry partner): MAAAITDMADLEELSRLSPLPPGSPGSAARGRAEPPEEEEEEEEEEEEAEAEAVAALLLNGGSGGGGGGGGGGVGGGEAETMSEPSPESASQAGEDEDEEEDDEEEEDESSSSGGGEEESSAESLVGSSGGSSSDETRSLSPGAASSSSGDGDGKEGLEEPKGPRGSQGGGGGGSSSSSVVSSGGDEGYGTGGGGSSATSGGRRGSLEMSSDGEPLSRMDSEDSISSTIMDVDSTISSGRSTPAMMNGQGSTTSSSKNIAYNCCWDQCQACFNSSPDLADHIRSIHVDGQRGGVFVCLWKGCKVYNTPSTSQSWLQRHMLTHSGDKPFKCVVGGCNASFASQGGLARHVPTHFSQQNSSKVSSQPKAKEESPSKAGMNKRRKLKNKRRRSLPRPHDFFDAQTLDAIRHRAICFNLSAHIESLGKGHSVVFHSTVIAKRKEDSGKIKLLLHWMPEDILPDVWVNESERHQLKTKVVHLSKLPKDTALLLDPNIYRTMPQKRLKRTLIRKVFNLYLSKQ
pIC50: −log10 of the molar value.
Measured metric: pIC50

Before answering, review these 5 worked examples.
| Molecule | Test system | pIC50 |
| --- | --- | --- |
| COc1cccc(F)c1CNc1ccc(-c2cccnc2CC#N)c2nncn12 | wild type PRC2 (wtPRC2) complex (Homo sapiens, UniProt O75530) | 7.02 |
| COc1cc(F)cc(F)c1CNc1ccc(-c2ccncc2)c2nncn12 | wild type PRC2 (wtPRC2) complex (Homo sapiens, UniProt O75530) | 7.01 |
| COc1cc(F)cc(F)c1CNc1ccc(-c2ccc(S(C)(=O)=O)cc2)c2nncn12 | wild type PRC2 (wtPRC2) complex (Homo sapiens, UniProt O75530) | 6.97 |
| COc1cc(F)cc(F)c1CNc1ccc(-c2cnc(S(C)(=O)=O)cc2C)c2nncn12 | wild type PRC2 (wtPRC2) complex (Homo sapiens, UniProt O75530) | 7.27 |
| COc1cccc(F)c1CNc1ccc(-c2ccc(F)cc2C)c2nncn12 | wild type PRC2 (wtPRC2) complex (Homo sapiens, UniProt O75530) | 6.44 |

[I] COc1cc(F)cc(F)c1CNc1ccc(-c2ccc(S(C)(=O)=O)nc2C)c2nncn12
[II] COc1cccc(F)c1CNc1ccc(-c2ccccc2CO)c2nncn12
// query Hey, which is lower on measured pIC50, I or II ? Kindly give the label for the entry you pick.
// result II
(II: 6.82, I: 7.25)

[I] COc1ccc(-c2ccc(NCc3c(F)cccc3OC)n3cnnc23)cn1
[II] COc1cccc(F)c1CNc1ccc(-c2cncnc2C(F)F)c2nncn12
[III] COc1cccc(F)c1CNc1ccc(-c2ccc(O)nc2C)c2nncn12
// query Task for the reader: rank each entry by its pIC50, from the minimum upward. Answer by listing the labels in the requested order.
// result I, III, II
(I: 6.91, III: 7.22, II: 7.48)

###

system: H3K27 methylation in G401 cell; assay: ELISA (H3K27 methylation) assay in G401 cells; assay type: cell-based, human; details: Homo sapiens, G-401, read-out: (c) IC50, ELISA Qualified
Measured metric: IC50 (nM)

Use the examples below as a reference point.
| Compound | IC50 / nM |
| --- | --- |
| COc1cc(F)ccc1CNc1ccc(-c2ccc(NS(C)(=O)=O)c(F)c2)c2nncn12 | 854 |
| COc1cc(F)ccc1CNc1ccc(-c2ccc(S(=O)(=O)N(C)C)cc2)c2nncn12 | 1180 |

[I] COc1cccc(F)c1CNc1ccc(-c2ccnn2C)c2nncn12
[II] COc1ccccc1CNc1ccc(-c2ccc(C(C)=O)cc2)c2nncn12
// query Sort I and II by IC50 descending and give the first. Mark your selection by writing its label.
// result II

[A] COc1c(F)cccc1CNc1ccc(-c2ccc(S(C)(=O)=O)nc2)c2nncn12
[B] COc1cccc(F)c1CNc1ccc(-c2ccccn2)c2nncn12
[C] COc1ccccc1CNc1ccc(-c2ccc(-c3nn[nH]n3)cc2)c2nncn12
// query Please give the order of these compounds when sorted by IC50, largest value leading. Record the ranking as a list of labels in the requested order.
// result A, C, B

[A] COc1cc(F)ccc1CNc1ccc(-c2ccc(S(N)(=O)=O)cc2)c2nncn12
[B] COc1cccc(F)c1CNc1ccc(-c2ccc(OCCS(C)(=O)=O)cc2)c2nncn12
// query Lowest IC50? choose A or B Mark your answer with the label of the selected entry.
// result B

[A] CN(C)Cc1ccc(-c2ccc(NCc3cccnc3)n3cnnc23)cc1
[B] COc1c(F)cccc1CNc1ccc(-c2ccc(S(C)(=O)=O)cc2)c2nncn12
// query Compare IC50: is it lower for A or for B ? Your answer should be the label attached to the chosen record.
// result A
(A: 2280 nM, B: 5140 nM)

[1] COc1ccccc1CNc1ccc(-c2ccc(N3CCOCC3)c(Cl)c2)c2nncn12
[2] COc1cccc(F)c1CNc1ccc(-c2ccc(CN(C)C)cc2)c2nncn12
// query Form field 'greater IC50' accepts 1 or 2 ; which applies? State your choice using its label.
// result 1
(1: 11000 nM, 2: 7.6 nM)

[1] COc1cc(F)ccc1CNc1ccc(-c2ccc(S(C)(=O)=O)cc2)c2nncn12
[2] COc1cccc(F)c1CNc1ccc(-c2cncc(C)c2)c2nncn12
[3] CN(C)Cc1ccc(-c2ccc(NCc3cccc(F)c3)n3cnnc23)cc1
[4] COc1ccccc1CNc1ccc(-c2ccc(S(=O)(=O)N3CCCC3)cc2)c2nncn12
[5] COc1ccccc1CNc1ccc(-c2ccccc2)c2nncn12
// query With regard to IC50, arrange the entries in ascending order, please. // rank by listing labels in the order requested
// result 2, 4, 5, 1, 3

[a] COc1cccc(F)c1CNc1ccc(-c2cnc(C)nc2C)c2nncn12
[b] COc1cccc(F)c1CNc1ccc(-c2nc(C)no2)c2nncn12
// query Exercise: compare a and b ; which one has the greater IC50? Please respond with the label that marks your chosen entry.
// result b

[P] COc1cccc(F)c1CNc1ccc(-c2ccc(S(=O)(=O)N(C)C)cc2)c2nncn12
[Q] COc1cc(CNc2ccc(-c3ccc(CN(C)C)cc3)c3nncn23)c(F)cc1F
// query Select the item with the higher value of IC50 from the options P and Q listed. Please reply using the label of the selected record.
// result Q
(Q: 287 nM, P: 78.5 nM)

###

target: wild type PRC2 (wtPRC2) complex (Homo sapiens, UniProt O75530); assay: EED LC-MS assay (SAH production by PRC2); assay type: biochemical; details: read-out: (b) IC50, EED LC-MS Qualified
Measured metric: IC50 (µM)

| Compound | Result units | IC50 |
| --- | --- | --- |
| COc1cc(F)ccc1CNc1ccc(-c2ccc(S(C)(=O)=O)cc2)c2nncn12 [Example 83] | µM | 0.491 |
| COc1ccccc1CNc1ccc(-c2ccc(C(N)=O)cc2)c2nncn12 [Example 72] | µM | 1.01 |

[a] COc1ccccc1CNc1ccc(-c2ccc(CN(C)C)cc2)c2nncn12 [Example 15]
[b] COc1cccc(F)c1CNc1ccc(-c2cncc(F)c2)c2nncn12 [Example 158]
// query Hi there! Just curious which has the higher IC50 between a and b . Give the chosen item's label as your response.
// result a
(a: 0.0663 µM, b: 0.0389 µM)

###

tested on: H3K27 methylation in G401 cell; assay: ELISA (H3K27 methylation) assay in G401 cells; type: cell-based, human; conditions: Homo sapiens, G-401, H3K27 methylation ELISA, read-out: (c) IC50 ELISA Qualified
Measured metric: IC50 (nM)

Illustrative cases are given below, each with its answer.
| Compound | IC50 (nM) |
| --- | --- |
| COc1c(F)ccc(F)c1CNc1ccc(-c2ccc(S(C)(=O)=O)nc2C)c2nncn12 | 31.6 |
| CCn1nccc1-c1ccc(NCc2c(F)cccc2OC)n2cnnc12 | 15.3 |
| COc1cccc(F)c1CNc1ccc(-c2ccccc2C(F)(F)F)c2nncn12 | 704 |
| COc1c(F)ccc(F)c1CNc1ccc(-c2cccnc2C)c2nncn12 | 51.9 |
| COc1cccc(F)c1CNc1ccc(-c2cccnc2C#N)c2nncn12 | 25.5 |
| COc1ccc(F)c(F)c1CNc1ccc(-c2ccc(S(C)(=O)=O)cc2)c2nncn12 | 277 |
| COc1cccc(F)c1CNc1ccc(-c2cccnc2Cl)c2nncn12 | 16.5 |
| COc1cccc(F)c1CNc1ccc(-c2c(C)ccnc2F)c2nncn12 | 42 |

[I] COc1cccc(F)c1CNc1ccc(-c2ccc(CNC(C)=O)nc2)c2nncn12
[II] COc1cccc(F)c1CNc1ccc(-c2cnc(C(=O)N(C)C)cc2C)c2nncn12
// query Endpoint returns whichever of I and II has the numerically higher IC50. Refer to your chosen entry by its label in the reply.
// result I

###

target: wild type PRC2 (wtPRC2) complex (Homo sapiens); assay: EED LC-MS assay (SAH production by PRC2); format: biochemical; settings: read-out: (b) IC50, EED LC-MS Qualified
Measured metric: IC50 (nM)

Example molecules with recorded IC50:
| Molecule | Endpoint value |
| --- | --- |
| COc1cccc(F)c1CNc1ccc(-c2ccc(N(C)S(C)(=O)=O)nc2)c2nncn12 [Example 163] | 50.5 |
| COc1cccc(F)c1CNc1ccc(-c2ccc(NS(C)(=O)=O)cc2)c2nncn12 [Example 105] | 281 |

[a] COc1ccccc1CNc1ccc(-c2ccc(S(=O)(=O)N(C)C)cc2)c2nncn12 [Example 34]
[b] COc1cccc(F)c1CNc1ccc(-c2cncc(C)c2)c2nncn12 [Example 165]
// query Between these two entries, a and b , state which has the higher IC50. Your answer should be the label attached to the chosen record.
// result a
(a: 358 nM, b: 38 nM)
